These data points were gathered from paper PMC8239543.

Type: in vivo, human
Conditions Used: male, human, plasma, oral, 600 mg, AUC4h, Cohort 2, Day 1, 30 min before a meal; mean (SD)
Experimental Endpoint: AUC(0-t)

Quickly give me recorded AUC(0-t) for N=C(N)Nc1ccc(C(=O)Oc2ccc(CC(=O)O)cc2)cc1 [GBPA]
227 ng·h/mL

* * *

Format: in vivo, human
Conditions Used: male, human, plasma, oral, 600 mg, AUC4h, Cohort 1, Day 1, Fasted; mean (SD)
Experimental Endpoint: AUC(0-t) (ng·h/mL)
Write the answer as a number in ng·h/mL, unit excluded.

Quickly give me recorded AUC(0-t) for N=C(N)Nc1ccc(C(=O)Oc2ccc(CC(=O)O)cc2)cc1 [GBPA]
683

* * *

Assay Comment: Population PK
Design: species or system human
Conditions Used: male, human, plasma, oral
Experimental Endpoint: clearance
Put your answer as a value accompanied by its unit after it.

Quickly give me recorded clearance for N=C(N)Nc1ccc(C(=O)Oc2ccc(CC(=O)O)cc2)cc1
11300 mL/min

* * *

Format: in vivo, human
Conditions Used: male, human, plasma, oral, 600 mg, AUC4h, Cohort 2, Day 9, 1 h before a meal; mean (SD)
Experimental Endpoint: AUC(0-t) (ng·h/mL)
Write the answer as a number in ng·h/mL, unit excluded.

Quickly give me recorded AUC(0-t) for N=C(N)Nc1ccc(C(=O)Oc2ccc(CC(=O)O)cc2)cc1
556
